Below, each entry is listed with its recorded growth.
- System: M14 melanoma
- EXPERIMENT_DESCRIPTION: NCI-60 one-dose screen, 48 h (100 = growth as untreated, 0 = no growth, -100 = all killed)
- CONDITION_LABEL: 10 µM unless noted
The panel holds about 83,000 compounds, 20% with a hit somewhere; the sample as a whole holds those more often. The source made the active and inactive calls. The calls were made as follows: active = growth percent below 10; inactive = the rest.
MEASURED_ATTRIBUTE: growth

[
  {
    "MOLECULE": "Nc1c(Cl)cc(N=Nc2ccccc2)cc1Cl",
    "TESTED_TARGET": "M14 melanoma",
    "MEASURED_ATTRIBUTE": "growth",
    "RESULT": "105% (inactive)"
  },
  {
    "MOLECULE": "NC(N)=N/N=C/c1ccc(-c2ccc(-c3ccc(Cl)cn3)s2)cc1",
    "TESTED_TARGET": "M14 melanoma",
    "MEASURED_ATTRIBUTE": "growth",
    "RESULT": "94.7% (inactive)"
  },
  {
    "MOLECULE": "Cc1cc(C=O)c(C)c2c1[nH]c1ccccc12",
    "TESTED_TARGET": "M14 melanoma",
    "MEASURED_ATTRIBUTE": "growth",
    "RESULT": "105% (inactive)"
  },
  {
    "MOLECULE": "CC(c1ccccc1)N1C(=O)C(C2SC(=S)N(C(C)c3ccccc3)C2=O)SC1=S (stereo unspecified)",
    "TESTED_TARGET": "M14 melanoma",
    "MEASURED_ATTRIBUTE": "growth",
    "RESULT": "69.8% (inactive)"
  },
  {
    "MOLECULE": "O=C1/C(=C\\C(Cl)=C/c2ccc([N+](=O)[O-])cc2)SC(=S)N1CCc1ccc(O)cc1",
    "TESTED_TARGET": "M14 melanoma",
    "MEASURED_ATTRIBUTE": "growth",
    "RESULT": "-27.5% (active)"
  },
  {
    "MOLECULE": "O=C1NC(c2ccc(Cl)c(Cl)c2)=C/C1=C\\c1ccccc1",
    "TESTED_TARGET": "M14 melanoma",
    "MEASURED_ATTRIBUTE": "growth",
    "RESULT": "90.9% (inactive)"
  },
  {
    "MOLECULE": "COc1ccc(O)c(-c2cc(-c3ccc(Cl)cc3)c(C#N)c(=O)[nH]2)c1",
    "TESTED_TARGET": "M14 melanoma",
    "MEASURED_ATTRIBUTE": "growth",
    "RESULT": "49.9% (inactive)"
  },
  {
    "MOLECULE": "COc1cc(C(=O)/C=C/c2cc(-c3ccc4c(c3)OCO4)n[nH]2)cc(OC)c1OC",
    "TESTED_TARGET": "M14 melanoma",
    "MEASURED_ATTRIBUTE": "growth",
    "RESULT": "81.4% (inactive)"
  },
  {
    "MOLECULE": "CCN(CC)CCCCCCNc1ccnc2cc(Cl)ccc12",
    "TESTED_TARGET": "M14 melanoma",
    "MEASURED_ATTRIBUTE": "growth",
    "RESULT": "38% (inactive)"
  },
  {
    "MOLECULE": "Cn1c2ccccc2c2c3c(c4c5cccnc5[nH]c4c21)C(=O)N(O)C3=O",
    "TESTED_TARGET": "M14 melanoma",
    "MEASURED_ATTRIBUTE": "growth",
    "RESULT": "20.5% (inactive)"
  },
  {
    "MOLECULE": "CN(C)c1cccc2[nH]c(-c3[nH]ncc3Nc3ccnc(N)n3)nc12",
    "TESTED_TARGET": "M14 melanoma",
    "MEASURED_ATTRIBUTE": "growth",
    "RESULT": "-79.9% (active)"
  },
  {
    "MOLECULE": "COc1cc2nc(Cl)nc(Nc3cccc(C(=O)/C=C/c4ccc(Cl)cc4)c3)c2cc1OC",
    "TESTED_TARGET": "M14 melanoma",
    "MEASURED_ATTRIBUTE": "growth",
    "RESULT": "70.2% (inactive)"
  },
  {
    "MOLECULE": "Clc1ccc(Cn2cc(-c3nc4ccc(Br)nc4n3Cc3ccc(Cl)cc3)c3cccnc32)cc1",
    "TESTED_TARGET": "M14 melanoma",
    "MEASURED_ATTRIBUTE": "growth",
    "RESULT": "89.8% (inactive)"
  },
  {
    "MOLECULE": "COc1cccc(-c2nn(-c3ccccc3)cc2-c2ccnc(NCCCNS(=O)(=O)c3cccc(F)c3)c2)c1",
    "TESTED_TARGET": "M14 melanoma",
    "MEASURED_ATTRIBUTE": "growth",
    "RESULT": "21% (inactive)"
  },
  {
    "MOLECULE": "C=C(C)[C@@H]1CC[C@]2(/C=N/Nc3ccncc3)CC[C@]3(C)[C@H](CC[C@@H]4[C@@]5(C)CCCNC(C)(C)[C@@H]5CC[C@]43C)[C@@H]12",
    "TESTED_TARGET": "M14 melanoma",
    "MEASURED_ATTRIBUTE": "growth",
    "RESULT": "79.4% (inactive)"
  },
  {
    "MOLECULE": "Cc1ccc2[nH]cc(-c3nc(-c4cn(C)c5ncccc45)cs3)c2c1",
    "TESTED_TARGET": "M14 melanoma",
    "MEASURED_ATTRIBUTE": "growth",
    "RESULT": "80% (inactive)"
  }
]

This collection of values is drawn from PubChem BioAssay (NCI).
